System Under Test: Sterol O-acyltransferase 1 (Rattus norvegicus)
Test Protocol: In vitro for inhibitory activity against Acyl coenzyme A:cholesterol acyltransferase 1 from rat liver microsomes at 50 uM
Label rule, in plain words: inhibition of 20% and up is yes, under 20% is no.

Known results for molecules:
Hello, I need to know if `CCOc1ccc([C@@H]2[C@@H](CCCc3ccccc3)C(=O)N2c2ccc(OC)cc2)cc1` has measured inhibition not below 20%. Thanks!
yes

Hello, I need to know if `COc1ccc(N2C(=O)[C@H](CCCc3ccccc3)[C@H]2c2ccc(OC)c(OC)c2)cc1` has measured inhibition not below 20%. Thanks!
yes

Does the reported inhibition for `COc1ccc(N2C(=O)[C@H](CCCc3ccccc3)[C@H]2c2ccc(O)cc2)cc1` fall at or above the 20% mark?
no

Entry `COc1ccc(N2C(=O)[C@H](CCCc3ccccc3)[C@H]2c2cccc(OC)c2)cc1` : is its inhibition no less than 20%?
yes

Textbook exercise: given the entry `COc1ccc(N2C(=O)[C@H](CCCc3ccccc3)[C@H]2c2ccccc2)cc1` , state whether its inhibition is greater than or equal to 20%.
yes

New cases:
Check this molecule for inhibition at or above 20%: `COc1ccc(N2C(=O)[C@H](CCCc3ccccc3)[C@H]2c2ccc(N)cc2)cc1`
yes

Hi team, for `COc1ccc(N2C(=O)[C@H](CCCc3ccccc3)[C@H]2c2ccc(OC(C)C)cc2)cc1` , is the recorded inhibition at or above 20%?
yes

Record `CCOc1ccc([C@@H]2[C@H](CCCc3ccccc3)C(=O)N2c2ccc(OC)cc2)cc1` ; criterion: inhibition no lower than 20%. Met?
yes

These entries and their values trace back to ChEMBL document CHEMBL1129795.
